Give pIC50 for every item shown.
- TARGET: Syk (356-635 amino acids) catalytic domain (Homo sapiens (Human), UniProt P43405)
- TEST_DETAILS: Inhibition of enzymatic Syk kinase activity (radiometric)
- Format: biochemical
- MEASUREMENT_CONTEXT: read-out: IC50 Syk
pIC50: −log10 of the molar value. Where a name gives a salt, the structure may show the parent alone.

Input: Sample `CCn1nnc(-c2ccc(Nc3nc(N4CCC(CC#N)CC4)nc4cn[nH]c(=O)c34)cc2)n1` — what was its pIC50?
Output: < 7.00

Input: Look up pIC50 for this compound: O=C(O)C1CC12CCN(c1ccc(Nc3nc(N4CCCCCC4)nc4cn[nH]c(=O)c34)cn1)CC2 (stereo not drawn)
Output: > 7.30

Input: Please report the recorded pIC50 for `O=C(O)CN1CCN(c2ccc(Nc3nc(N4CCCCCC4)nc4cn[nH]c(=O)c34)cn2)CC1` .
Output: > 7.00

Input: Find the recorded pIC50 belonging to `O=c1[nH]ncc2nc(N3CCCCCC3)nc(Nc3ccc(OCCC4CCNCC4)cc3)c12` and report it.
Output: > 7.30

Input: Fill blank: measured pIC50 of the compound `COC1CCN(c2ccc(Nc3nc(N4CCC(CC#N)CC4)nc4cn[nH]c(=O)c34)cc2)CC1` is ____.
Output: > 7.30

Input: Entry `O=c1[nH]ncc2nc(-c3ccccc3)nc(Nc3cnn(CCN4CCOCC4)c3)c12` : reported pIC50 = ?
Output: < 7.00

Input: Name the recorded pIC50 for `CC(C)(O)C1CCN(c2ccc(Nc3nc(N4CCCCCC4)nc4cn[nH]c(=O)c34)cc2)CC1` .
Output: > 7.30

Input: Look up pIC50 for this compound: COc1ccccc1-c1nc(Nc2ccc(CN3CCNCC3)cc2)c2c(=O)[nH]ncc2n1 [Example 36, hydrochloride]
Output: < 7.00

Input: # lookup: pIC50 of `CC1(O)CCN(CCOc2ccc(Nc3nc(N4CCCCCC4)nc4cn[nH]c(=O)c34)cc2)CC1`
Output: > 8.00

Input: Requested field: pIC50. Item: `O=c1[nH]ncc2nc(N3CCCCCC3)nc(Nc3ccc(N4CCC(CCF)CC4)cc3)c12`
Output: < 7.00

Input: Quick one: pIC50 of `COc1ccc(Nc2nc(N3CCCCCC3)nc3cn[nH]c(=O)c23)cc1OC` ?
Output: < 7.00

Input: Could you tell me which pIC50 is on file for `COc1cccc(Nc2nc(N3CCCCCC3)nc3cn[nH]c(=O)c23)c1` ?
Output: < 7.00

---

- TARGET: Syk (356-635 amino acids) catalytic domain (Homo sapiens (Human), UniProt P43405)
- TEST_DETAILS: Inhibition of enzymatic Syk kinase activity (radiometric)
- Type: biochemical
- MEASUREMENT_CONTEXT: read-out: IC50 Syk
- Protocol: The objective of this assay was to examine by radiometric method the ability of compounds to inhibit Syk kinase enzyme. Syk is capable of phosphorylating substrates such as VAV, LAT, SLP-76, which in turn activate MAPK, PLCγ signaling pathways. […] This in vitro assay tests the ability of syk to phosphorylate a substrate peptide in the presence of ATP. […] The filter plate was dried and the radioactivity was measured on a scintillation counter to estimate the incorporated radioactivity on the substrate. […]
pIC50: −log10 of the molar value. Structures can show the parent of a compound that is named as a salt.
OUTCOME_MEASURE: pIC50

Input: # input molecule: `CCN1CCN(c2ccc(Nc3nc(N4CCOCC4)nc4cn[nH]c(=O)c34)cc2)CC1` ; wanted: its pIC50
Output: > 8.00

Input: I'd like to know its pIC50. The molecule in question is `CC(C)(O)C(=O)N1CCN(CCOc2ccc(Nc3nc(N4CCCCCC4)nc4cn[nH]c(=O)c34)cc2)CC1`
Output: > 7.30

Input: Look at this molecule and give its reported pIC50. `N#CCC1CCN(c2nc(Nc3ccc(N4CCN(CCC(=O)O)CC4)cc3)c3c(=O)[nH]ncc3n2)CC1`
Output: > 8.00

Input: Could you share which pIC50 value was measured for N#CCC1CCN(c2nc(Nc3ccc(N4CCCC(O)C4)cc3)c3c(=O)[nH]ncc3n2)CC1 (stereo not shown) ?
Output: > 7.30

Input: Please report the recorded pIC50 for `COCCN1CCN(c2ccc(Nc3nc(N4CCC(CC#N)CC4)nc4cn[nH]c(=O)c34)cc2)CC1` .
Output: > 8.00

Input: Consider the molecule shown here: `N#CCC1CCN(c2nc(Nc3ccc(OC4CCN(CCO)CC4)cc3)c3c(=O)[nH]ncc3n2)CC1` What is its recorded pIC50?
Output: > 7.30

Input: Fill blank: measured pIC50 of the molecule `O=c1[nH]ncc2nc(N3CCCCCC3)nc(Nc3ccc(CCO)cc3)c12` is ____.
Output: > 7.30

Input: # query: pIC50 of entry `O=C1CC2(CCN(c3ccc(Nc4nc(-c5ccccc5)nc5cn[nH]c(=O)c45)cc3)CC2)N1`
Output: < 7.00

Input: Would you kindly share the measured pIC50 for `NC(=O)CC1CCN(c2ccc(Nc3nc(N4CCCCCC4)nc4cn[nH]c(=O)c34)cn2)CC1` ?
Output: > 8.00

Input: Look up pIC50 for this molecule: `N#CCC1CCN(c2nc(Nc3ccc(N4CCNCC4)cc3)c3c(=O)[nH]ncc3n2)CC1`
Output: > 8.00

Input: Could you tell me which pIC50 is on file for O=c1[nH]ncc2nc(-c3ccccc3)nc(Nc3cnn(CCN4CCNCC4)c3)c12 [Example 63, hydrochloride] ?
Output: < 7.00

Input: Give the measured pIC50 of `O=C(O)CCCOc1ccc(Nc2nc(N3CCCCCC3)nc3cn[nH]c(=O)c23)cc1` .
Output: > 8.00

Input: Report pIC50 for `O=c1[nH]ncc2nc(-c3ccccc3)nc(Nc3ccc(N4CCOCC4)cc3)c12` please.
Output: > 7.30

Input: // query pIC50 value for entry O=c1[nH]ncc2nc(N3CCNCC3)nc(Nc3ccc(CN4CCNCC4)cc3)c12 [Example 32, dihydrochloride]
Output: > 7.00

Input: Query: pIC50; subject: `O=C(O)CCc1ccc(Nc2nc(N3CCCCCC3)nc3cn[nH]c(=O)c23)cc1`
Output: > 8.00

Input: Item under review: `CN1CCN(c2ccc(Nc3nc(N4CCCCCC4)nc4cn[nH]c(=O)c34)cc2)CC1` . Reported pIC50?
Output: > 8.00

---

- TARGET: JAK2 (Homo sapiens (Human))
- Sequence (O60674 808-1132): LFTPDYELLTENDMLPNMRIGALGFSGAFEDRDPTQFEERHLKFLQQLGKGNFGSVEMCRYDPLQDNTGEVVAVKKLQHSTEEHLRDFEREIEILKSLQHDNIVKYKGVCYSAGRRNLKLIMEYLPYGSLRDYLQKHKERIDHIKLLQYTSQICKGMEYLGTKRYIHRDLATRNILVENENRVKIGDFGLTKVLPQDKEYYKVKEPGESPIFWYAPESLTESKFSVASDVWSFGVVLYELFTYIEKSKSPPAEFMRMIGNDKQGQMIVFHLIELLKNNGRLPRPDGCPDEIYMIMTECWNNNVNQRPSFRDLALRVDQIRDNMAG
- TEST_DETAILS: Inhibition of enzymatic JAK2 kinase activity (TR-FRET)
- Format: biochemical
- MEASUREMENT_CONTEXT: read-out: IC50 JAK
Where a name gives a salt, the structure may show the parent alone.
OUTCOME_MEASURE: IC50

Input: Requested field: IC50. Item: O=c1[nH]ncc2nc(N3CCNCC3)nc(Nc3ccc(CN4CCNCC4)cc3)c12 [Example 32, dihydrochloride]
Output: > 100 nM

Input: Consider the compound shown here: `CC(C)(O)C(=O)N1CCN(c2ccc(Nc3nc(N4CCCCCC4)nc4cn[nH]c(=O)c34)cn2)CC1` What is its recorded IC50?
Output: < 10 nM

Input: Returns the measured IC50 for the input compound. Input: `O=c1[nH]ncc2nc(N3CCCCCC3)nc(Nc3ccc(OCCN4CCC(CO)CC4)cc3)c12`
Output: < 10 nM

Input: Value lookup for IC50; key = `CN1CCN(c2ccc(Nc3nc(N4CCCCCC4)nc4cn[nH]c(=O)c34)cc2)CC1`
Output: < 10 nM

---

Hi there, I'd appreciate the recorded IC50 for every entry that follows.
- TARGET: Syk (356-635 amino acids) catalytic domain (Homo sapiens (Human))
- TEST_DETAILS: Inhibition of enzymatic Syk kinase activity (radiometric)
- Assay type: biochemical
- MEASUREMENT_CONTEXT: read-out: IC50 Syk
Where a name gives a salt, the structure may show the parent alone.

Input: Would you kindly share the measured IC50 for `N#CCC(=O)N1CCN(c2ccc(Nc3nc(N4CCCCCC4)nc4cn[nH]c(=O)c34)cc2)CC1` ?
Output: < 0.01 µM

Input: Item `CCN1CCN(C(=O)COc2ccc(Nc3nc(N4CCC(CC#N)CC4)nc4cn[nH]c(=O)c34)cc2)CC1` has what recorded IC50?
Output: < 0.05 µM

Input: Bench note: what IC50 did CC1CN(c2nc(Nc3ccc(N4CCC(CC(=O)O)CC4)cc3)c3c(=O)[nH]ncc3n2)CC(C)O1 (centres unmarked) show?
Output: < 0.05 µM

Input: Fill in: IC50 of `CC(C)N(CCOc1ccc(Nc2nc(N3CCCCCC3)nc3cn[nH]c(=O)c23)cc1)C(C)C` is ___
Output: < 0.05 µM

Input: Tell me the measured IC50 of O=C(c1ccc(Nc2nc(N3CCCCCC3)nc3cn[nH]c(=O)c23)cc1)N1CCNCC1 [Example 104, hydrochloride] , please.
Output: < 0.05 µM

Input: Item under review: `O=c1[nH]ncc2nc(N3CCCCCC3)nc(Nc3ccc(CCN4CCN(CCO)CC4)cc3)c12` . Reported IC50?
Output: < 0.05 µM

Input: Look up IC50: `O=c1[nH]ncc2nc(N3CCCCCC3)nc(Nc3ccc(F)cc3)c12`
Output: > 0.1 µM

Input: Give the measured IC50 of `N#CCC1CCN(c2nc(Nc3ccc(OCCN4CCNCC4)cc3)c3c(=O)[nH]ncc3n2)CC1` .
Output: < 0.05 µM
